# key: entry, value: TGI
Tested on: 786-0 renal
Assay: NCI tumour cell line growth inhibition, 48 h
observation_type: TGI (µM)

compound	relation_operator	reported_result
O=S(=O)(/N=C(\NO)Nc1ccc(Cl)cc1)c1cc2ccccc2s1	=	32.3
O=C1C(Cl)=C(NCCCN(CCCNC2=C(Cl)C(=O)c3ccccc3C2=O)C2=C(Cl)C(=O)c3ccccc3C2=O)C(=O)c2ccccc21	=	18.2
CCCCCCCCCCCC[N+]12CC[N+](C)(CC1)CC2	=	26.8
CN(C)c1ccc2[nH]c3c(C(N)=O)cc(=O)c(=O)c=3oc2c1	=	22.2
CC1=C2C=CC(=O)C[C@@]2(C)CCC1	>	100
O=C(CI)Nc1ccc(Br)cc1	=	4.62
COc1ccc(C2=NNC(=O)c3ccccc3N2c2nc(-c3cccs3)nc3cc(OC)c(OC)cc23)cc1	=	12.1
CC1=C[C@@H]2c3c(c(O)c(O)c4oc5cc(O)cc(O)c5c(=O)c34)[C@@H](c3cc(O)c(O)c4oc5cc(O)cc(O)c5c(=O)c34)[C@@H]2C(C)(C)C1	=	11.5
CSc1ncc2c(n1)-c1ccccc1OC2	>	100
CSc1nc2c(c(=O)n1C)C(c1ccccc1)C1=C(N2)/C(=C/c2ccccc2)CCC1 (centres undefined)	=	56.4
CN(CCCCCl)P(=O)(OCc1ccc([N+](=O)[O-])o1)OCC1OC(n2cc([N+](=O)[O-])c(=O)[nH]c2=O)CC1O (centres undefined)	>	100
Clc1ccc(-c2nc(NCc3ccco3)c3ccccc3n2)c(Cl)c1	=	56.1
CC(NNC(=O)c1ccncc1)c1cccc(C(F)(F)F)c1 (centres undefined)	>	100
COc1cc(/C=C/C(=N\NC(N)=S)c2sc(NNC(C)=O)nc2C)ccc1O	>	100
CC(=O)[CH-]C(=O)c1ccccc1.CC(=O)[CH-]C(=O)c1ccccc1.CC(=O)[CH-]C(=O)c1ccccc1.[Ga+3]	=	37.1
COc1ccc2[nH]c3c(c2c1)CC(=O)N1CCC[C@H](C1)CC31OCCCO1	>	100
CCN(CC)c1c(C)nnn1C1OC(COC(C)=O)C(OC(C)=O)C(OC(C)=O)C1OC(C)=O (centres undefined)	>	100
CC(C)(C)OC(=O)N1N=CCC1c1ccccc1 (centres undefined)	>	100
O=C1[C@@H]2C(c3ccccc3[N+](=O)[O-])=NO[C@@H]2C(=O)N1c1ccc(Cc2ccc(N3C(=O)[C@H]4C(c5ccccc5[N+](=O)[O-])=NO[C@H]4C3=O)cc2)cc1	>	100

---

Test system: SNB-75 CNS
Test: NCI tumour cell line growth inhibition, 48 h
observation_type: TGI

>>> df
                                    compound  observation_type  reported_result
 0  CC1=C(C(=O)Nc2ccc(Cl)c(Cl)c2)C(c2cccc(Cl)c2)NC(=S)N1 (stereo not given)               TGI          > 50 µM
 1         CN(C)CCC[N+]1=Nc2cccc3cccc(c23)N1               TGI         > 100 µM
 2  Fc1ccc(C(OCCN2CCC3CCC(C2)N3C/C=C/c2cccs2)c2ccc(F)cc2)cc1 (stereo not given)               TGI            29 µM
 3  COc1ccc2[nH]c3c(c2c1)CC(=O)N1CCC[C@H](C1)CC31OCCCO1               TGI         > 100 µM
 4  COc1cccc(OC)c1NC(=O)C(=O)Nn1c(NNC(=O)c2ccncc2)nc2ccccc2c1=O               TGI         > 100 µM
 5  O=C1C(=C([O-])c2ccccc2)C(=O)c2ccccc21.O=C1C(=C([O-])c2ccccc2)C(=O)c2ccccc21.[Ni+2]               TGI         > 100 µM
 6  Cc1ccc(-c2nc3sc(C)cn3c2/C=C2\C(=O)Nc3ccc(Cl)cc32)cc1               TGI          8.44 µM
 7  COc1ccc2c(c1)C(=O)c1c-2n(CCCN(C)C)c(=O)c2cc([N+](=O)[O-])ccc12               TGI          2.74 µM
 8  COc1ccc(-c2[nH]ncc2Nc2cc(OC)c(OC)c(OC)c2)cc1               TGI         > 100 µM
 9  Cc1cc(C)c2c(n1)S(=O)(=O)N(CCCN1CCN(c3cccc(Cl)c3)CC1)/C(=C(\O)c1ccc(Br)cc1)C2=O               TGI          28.3 µM
10  Cc1ccc(S(=O)(=O)N(CCNC(=O)c2cccc(O)c2O)c2cc3c4c(c2)Oc2cccc5c2C4(C)c2c(cccc2O3)O5)cc1               TGI         > 100 µM
11  CCNC(=S)NNC(=O)c1ccccc1Nc1ccccc1C(=O)NNC(=S)NCC               TGI         > 100 µM
12  CCOC(=O)C1C(=O)CC(=O)C2CCCCC21 (stereo not given)               TGI         > 100 µM
13  Cc1ccc(NC(=O)C2C3CCC(O3)C2C(=O)O)cc1 (stereo not given)               TGI         > 100 µM
14  COc1ccc2c(c1)/c(=C/C#N)c1c3ccccc3[n+](C)n21               TGI          9.21 µM
15  O=C(N/C(=C\c1ccc(/C=C(\NC(=O)c2ccccc2)c2nc3c(O)nc(S)nc3[nH]2)cc1)c1nc2c(O)nc(S)nc2[nH]1)c1ccccc1               TGI          84.7 µM
16  C=C1CCOC2(C(O)C(C)(O)CO)NC(=O)C1(O)NC2=O (stereo not given)               TGI         > 100 µM
17  CC(=O)OCC1OC(n2c(=S)n(-c3ccccc3)c(=O)c3cc(Br)ccc32)C(OC(C)=O)C1OC(C)=O (stereo not given)               TGI         > 100 µM
18  COc1ccccc1C(=O)OCC1CCCN2CCCCC12 (stereo not given)               TGI          63.4 µM
19  COc1ccc2c3/c(=C\c4ccc(N(C)C)cc4)c4ccccc4n3[n+](C)c2c1               TGI          4.18 µM
